TGT: Fatty acid-binding protein, heart (Homo sapiens, UniProt P05413)
Sequence (P05413 whole entry): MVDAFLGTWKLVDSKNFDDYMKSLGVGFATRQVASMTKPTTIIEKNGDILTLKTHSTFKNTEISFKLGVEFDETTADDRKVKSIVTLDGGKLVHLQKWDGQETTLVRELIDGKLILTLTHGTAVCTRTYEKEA
pIC50: −log10 of the molar value.
RECORDED_ENDPOINT: pIC50

[A] O=C(O)CCCOc1ccccc1-c1cc(-c2ccccc2)n(C2CCCC2)n1
[B] O=C(O)CCCOc1ccccc1-c1cc(-c2ccccc2)n(-c2ccccc2Cl)n1
[C] O=C(O)CCCOc1ccccc1-c1cc(-c2ccccc2)n(-c2ccccc2)n1
Rank the listed compounds according to pIC50, from the largest value downward. Please express your ranking as an ordered list of the labels. B, C, A
(B: 5.94, C: 5.70, A: 5.22)

###

TGT: Fatty acid-binding protein, adipocyte (Homo sapiens)
Sequence (P15090 whole entry): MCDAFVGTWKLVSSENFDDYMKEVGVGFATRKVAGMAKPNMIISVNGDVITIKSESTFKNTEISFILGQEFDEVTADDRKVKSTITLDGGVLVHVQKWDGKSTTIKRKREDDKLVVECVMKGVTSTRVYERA
CONDITIONS_USED: read-out: IC50
RECORDED_ENDPOINT: IC50 (µM)

Sample records with IC50:
Name the recorded IC50 for `O=C(O)CCCOc1ccccc1-c1cc(-c2ccccc2)n(-c2cccc(Cl)c2)n1` . 2.5

Name the recorded IC50 for `O=C(O)CCCOc1ccccc1-c1cc(-c2ccc(Cl)cc2)n(-c2ccccc2)n1` . 6.13

Name the recorded IC50 for `O=C(O)CCCCCCOc1ccccc1-c1cc(-c2ccc(Cl)cc2)n(-c2ccccc2)n1` . 31

Name the recorded IC50 for `O=C(O)CCCOc1ccccc1-c1cc(-c2ccccc2)n(-c2ccc(Cl)cc2)n1` . 4.32

Name the recorded IC50 for `Cc1ccc(-c2cc(-c3ccccc3OCCCCC(=O)O)nn2-c2ccccc2)cc1` . 259

[I] O=C(O)CCCOc1ccccc1-c1cc(-c2ccccc2)n(C2CCCCC2)n1
[II] O=C(O)CCCCOc1ccccc1-c1cc(-c2ccccc2)n(-c2ccccc2)n1
[III] O=C(O)CCCCOc1ccccc1-c1cc(-c2ccc(Br)cc2)n(-c2ccccc2)n1
[IV] CC(C)c1ccc(-n2nc(-c3ccccc3OCCCC(=O)O)cc2-c2ccccc2)cc1
Arrange the 4 molecules by rising IC50, starting with the smallest. Please express your ranking as an ordered list of the labels. II, IV, I, III
(II: 6.39 µM, IV: 10.3 µM, I: 23.5 µM, III: 86 µM)

[A] O=C(O)CCCCOc1ccccc1-c1cc(-c2ccc(Cl)cc2)n(-c2ccccc2)n1
[B] Cc1ccc(-c2cc(-c3ccccc3OCCCC(=O)O)nn2-c2ccccc2)cc1
[C] O=C(O)COc1cccc(-c2ccccc2-c2cc(-c3ccccc3)n(-c3ccccc3)n2)c1
Arrange the 3 molecules by rising IC50, starting with the smallest. Please express your ranking as an ordered list of the labels. C, B, A

Origin of the recorded values: ChEMBL document CHEMBL2331161
